# target_system: T1, recombinant mouse TIGIT-Fc carrier-free protein (Mus musculus, UniProt A0A0B4J1G6)
# T1 construct: T cell Ig and ITIM domain receptor (TIGIT), mouse; also called mTIGIT-Fc; mouse TIGIT recombinant protein; source: bought: Biolegend (Cat. No. 771808)
# T1 sequence (P86176 29-148): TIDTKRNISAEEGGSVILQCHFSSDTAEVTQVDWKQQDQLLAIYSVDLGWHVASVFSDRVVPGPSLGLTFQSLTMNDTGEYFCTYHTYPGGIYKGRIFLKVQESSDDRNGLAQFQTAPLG
# protocol_text: SPR; Biacore T200; m/hTIGIT-Fc (10 µg/mL in 10 mM Na-acetate pH 4.0) immobilised on a CM5 chip; Nbs or scFv injected in two-fold dilutions from 200 nM, 10 µl/min, 25°C; HBS pH 7.4 (0.01 M HEPES, 0.15 M NaCl, 3 mM EDTA, 0.005% Tween 20); fit 1:1 binding with drift and RI2
# study_conditions: both partners purified
koff listing for selected binders.

binder: anti-mTIGIT Nb 16988 (VHH, nanobody from an immunized llama; Cloned in pHen6 after PCR with primers A6E and PMCF; source: E. coli WK6, periplasmic extract, purified (Ni-NTA, SEC); not shown: His6, C-terminal, kept) VHH: QVQLQESGGGLVQAGGSLRLSCAASSVSSITGMDWYRQAPGKQREWVATITRNNIAMYGASVKGRFTVSRDDAKNTWYLQMNSLKPEDTAVYYCTYHGNWGQGTQVTVSS
result_units: s⁻¹
koff: 0.000738
--
binder: anti-mTIGIT Nb 16979 (VHH, nanobody from an immunized llama; Cloned in pHen6 after PCR with primers A6E and PMCF; source: E. coli WK6, periplasmic extract, purified (Ni-NTA, SEC); not shown: His6, C-terminal, kept) VHH: QVQLQESGGGLVQAGESLRLSCAASIIVSDNIMAWYRQSPGKQREIVALISSTGTINYVDSVKGRFTISRDNAKNTLNLQMTKLKPEDTAVYYCSGRTLRVYWGQGTQVTVSS
result_units: s⁻¹
koff: 0.114
--
binder: anti-mTIGIT Nb 16966 (VHH, nanobody from an immunized llama; Cloned in pHen6 after PCR with primers A6E and PMCF; source: E. coli WK6, periplasmic extract, purified (Ni-NTA, SEC); not shown: His6, C-terminal, kept) VHH: QVQLQESGGGSVRPGESLRLSCAASSDSSITGMDWYRQAPGKQREWVATITRNNITIYGASVKGRFTVSRDNVKNTWYLQMNSLKPEDTAVYYCTYRGNWGQGTQVTVSS
result_units: s⁻¹
koff: 0.00257
--
binder: anti-mTIGIT Nb 16972 (VHH, nanobody from an immunized llama; Cloned in pHen6 after PCR with primers A6E and PMCF; source: E. coli WK6, periplasmic extract, purified (Ni-NTA, SEC); not shown: His6, C-terminal, kept) VHH: QVQLQESGGGLVQTGESLRLSCAASSVSSITGMDWYRQAPGKQREWVATITRNNIAMYGASVKGRFTVSRDNAKNTWYLQMNSLKPEDTAVYYCTYRGNWGQGTQVTVSS
result_units: s⁻¹
koff: 0.00113
